These entries and their values trace back to patent US7341730B1.

Test system: KS Y-1 cells
Assay: KS Y-1 cell proliferation assay (MTT)
Format: cell-based
Details: KS Y-1; concentration not given
Listed below: Cell Proliferation Activity (% of control), KS Y-1 values for each entry.

Worked examples, 5 substances total:
// assay KS Y-1 cells, entry DCIQMV [SEQ ID NO:23] , Cell Proliferation Activity (% of control), KS Y-1 value = 51 % of control

Tested on KS Y-1 cells: DVCQDC [SEQ ID NO:27] . Observed Cell Proliferation Activity (% of control), KS Y-1: 22 % of control

For GDVSQDSIQMV [SEQ ID NO:20] on KS Y-1 cells, measured Cell Proliferation Activity (% of control), KS Y-1 was 84 % of control

Item: VCQDCIQMV [SEQ ID NO:29] | System: KS Y-1 cells | Cell Proliferation Activity (% of control), KS Y-1: 33 % of control

The substance GDVCQDCIQMV [SEQ ID NO:19] , tested on KS Y-1 cells, showed Cell Proliferation Activity (% of control), KS Y-1 of 8 % of control

---
Noted Cell Proliferation Activity (% of control), KS Y-1 for DVCQDCIQ [SEQ ID NO:25] , tested on KS Y-1 cells: 39 % of control

Short answer on KS Y-1 cells for DVCQDCI [SEQ ID NO:26] , Cell Proliferation Activity (% of control), KS Y-1: 40 % of control

I looked up DVCQDCIQM [SEQ ID NO:24] and its Cell Proliferation Activity (% of control), KS Y-1 for KS Y-1 cells was 46 % of control

Simply: CQDCIQMV [SEQ ID NO:30] , KS Y-1 cells, Cell Proliferation Activity (% of control), KS Y-1 = 35 % of control

---

Test system: fibroblast cells (T1)
Assay: Fibroblast proliferation assay (MTT), control cells
Assay type: cell-based
Settings: T1, second value column; concentration not printed
No end group written: not given here.
outcome-measure: Cell Proliferation Activity (% of control), T1

In plain terms, CQDCIQMV [SEQ ID NO:30] has a documented Cell Proliferation Activity (% of control), T1 of 84 % of control

response.value for DVCQDCI [SEQ ID NO:26] (field: Cell Proliferation Activity (% of control), T1) = 81 % of control

response.value for QDCIQMV [SEQ ID NO:31, QDCIQMV] (field: Cell Proliferation Activity (% of control), T1) = 80 % of control

Looking up DVCQDC [SEQ ID NO:27] , I see its Cell Proliferation Activity (% of control), T1 listed as 75 % of control

Record summary for DVCQDCIQM [SEQ ID NO:24] : reported Cell Proliferation Activity (% of control), T1 = 84 % of control

The reported Cell Proliferation Activity (% of control), T1 of the substance VCQDCIQMV [SEQ ID NO:29] was 86 % of control

Lab note: measured Cell Proliferation Activity (% of control), T1 of DVCQDCIQ [SEQ ID NO:25] was 89 % of control
